assay: Antifungal activity against Ceratocystis paradoxa moreau after 4 to 14 days by serial dilution method; type: functional; conditions: Thielaviopsis
Quantity name: MIC (µM)

>>> measured_result("COc1cc(O)cc(CCc2ccc(O)c(OC)c2)c1 [GIGANTOL]")
91.2
>>> measured_result("COc1cc(O)cc(CCc2ccccc2)c1")
110
>>> measured_result("Oc1cccc(CCc2cc(O)cc(O)c2)c1")
109

----------
experiment: Antifungal activity against Exserohilum turcicum after 4 to 14 days by serial dilution method; type: functional; conditions: Setosphaeria turcica
Quantity name: MIC

>>> measured_result("COc1c(O)cc2c(c1OC)-c1ccc(O)cc1CC2")
"> 400 µM"
>>> measured_result("CCCN(CCOc1c(Cl)cc(Cl)cc1Cl)C(=O)n1ccnc1")
"33.3 µM"
>>> measured_result("COc1cc(O)cc(CCc2ccccc2)c1")
"110 µM"
>>> measured_result("Oc1cccc(CCc2cc(O)cc(O)c2)c1")
"109 µM"
>>> measured_result("COC1=CC(=O)C[C@]2(CCc3cccc(O)c32)C1=O")
"> 400 µM"
>>> measured_result("COc1cc(O)c2c(c1)CCc1cc(O)ccc1-2")
"> 400 µM"
